System: CHEAL (Lambsquarters, Common)
test_details: Postemergence herbicidal evaluation
Format: in vivo, Chenopodium album
run_parameters: postemergence, rate 0.0156 kg/ha
attribute_measured: herbicidal rating CHEAL
Lab note: jot the number down without any unit.

[
  {
    "compound": "Cn1c(C(F)(F)F)cc(=O)n(-c2cc(N=C3SCC(=O)N3C3CC3)c(Cl)cc2F)c1=O",
    "reported_result": 0.0
  },
  {
    "compound": "CCOC(=O)CN1C(=O)C(CC(=O)NS(=O)(=O)c2ccccc2)SC1=Nc1cc(-n2c(=O)cc(C(F)(F)F)n(C)c2=O)c(F)cc1Cl (stereo not drawn)",
    "reported_result": 5.0
  }
]

Pending compound:
q: I would be grateful if you could share the reported herbicidal rating CHEAL for "Cn1c(C(F)(F)F)cc(=O)n(-c2cc(N=C3SCC(=O)N3Cc3ccc(S(N)(=O)=O)cc3)c(Cl)cc2F)c1=O" .
a: 4.0
